# measured_target: human B1R (bradykinin receptor 1) (Homo sapiens, UniProt P46663)
# Construct: expressed in transfected cells; host or cells: CHO K1 cells
# Sequence (P46663 1-353): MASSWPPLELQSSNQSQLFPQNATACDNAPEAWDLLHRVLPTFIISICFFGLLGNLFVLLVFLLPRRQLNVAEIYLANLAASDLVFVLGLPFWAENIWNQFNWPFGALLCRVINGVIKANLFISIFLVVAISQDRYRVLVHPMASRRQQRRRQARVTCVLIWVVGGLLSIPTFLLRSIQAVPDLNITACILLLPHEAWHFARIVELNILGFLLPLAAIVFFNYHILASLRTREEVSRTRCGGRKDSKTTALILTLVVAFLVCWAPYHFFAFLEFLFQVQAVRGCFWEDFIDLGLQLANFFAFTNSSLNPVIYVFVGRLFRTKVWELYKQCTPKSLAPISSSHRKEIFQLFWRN
# experiment_summary: FLIPR Ca2+ assay (Fluo-4) on CHO K1 cells stably transfected with the human B1R gene (hB1R cells): % inhibition at 10 μM / IC50, agonist Lys-Des-Arg9-bradykinin
# Assay type: cell-based
# settings: CHO-K1, human B1R
For each of the molecules below, state its inhibition at 10 µM.
# answer = value followed by unit

response.value for O=C(NC1CCc2ccc(C(=O)N3CCC4(CC3)CCN(c3ccncc3)C4)cc21)c1ccccc1Cl (centres unmarked) [Ind_CC-101] (field: inhibition at 10 µM) = 100%

response.value for Cc1ncccc1C(=O)N[C@@H]1CCc2ccc(C(=O)N3CCC4(CCN(c5ccncc5)CC4)C3)cc21 [Example H-114] (field: inhibition at 10 µM) = 100%

response.value for O=C(c1ccc2c(c1)[C@H](N1Cc3cccc(Cl)c3C1=O)CCC2)N1CCC2(CC1)CCN(c1ccncc1)CC2 [Example H-14] (field: inhibition at 10 µM) = 91%

response.value for O=C(N[C@H]1CCc2cc(C(=O)N3CCC4(CCN(c5ccncc5)CC4)C3)ccc21)c1ccccc1Cl [Example H-155] (field: inhibition at 10 µM) = 87%

response.value for COc1cc(C)c(S(=O)(=O)NC2CCc3ccc(C(=O)N4CCC5(CC4)CCN(c4ccncc4)C5)cc32)c(C)c1 (centres unmarked) [Ind_CC-050] (field: inhibition at 10 µM) = 100%

response.value for CN([C@@H]1CCc2ccc(C(=O)N3CCC4(CCN(c5ccncc5)CC4)C3)cc21)S(=O)(=O)c1ccccc1Cl [Example H-136] (field: inhibition at 10 µM) = 99%

response.value for O=C(NC1CCc2ccc(C(=O)N3CCC4(CC3)CCN(c3cccnc3)CC4)cc21)c1ccccc1Cl (centres unmarked) [Ind_CC-096] (field: inhibition at 10 µM) = 91%

response.value for COc1cc(C)c(C(=O)NC2CCc3ccc(C(=O)N4CCC5(CCN(Cc6ccncc6)CC5)CC4)cc32)c(C)c1 (centres unmarked) [Ind_CC-092] (field: inhibition at 10 µM) = 78%

response.value for O=C(NC1CCc2ccc(C(=O)N3CCC4(CCN(c5ccncc5)CC4)C3)cc21)c1ccccn1 (centres unmarked) [Ind_CC-084] (field: inhibition at 10 µM) = 99%

response.value for O=C(N[C@@H]1CCc2ccc(C(=O)N3CCCC4(CCN(c5ccncc5)CC4)C3)cc21)c1ccccc1Cl [Example H-54] (field: inhibition at 10 µM) = 98%

response.value for COc1ccc(C(=O)N[C@@H]2CCc3ccc(C(=O)N4CCC5(CCN(c6ccncc6)CC5)C4)cc32)c(C)c1 [Example H-61] (field: inhibition at 10 µM) = 100%

response.value for CN(C(=O)c1ccccc1C(F)(F)F)C1CCc2ccc(C(=O)N3CCC4(CC3)CCN(c3ccncc3)CC4)cc21 (centres unmarked) [Ind_CC-015] (field: inhibition at 10 µM) = 100%

response.value for O=C(NC1CCc2ccc(C(=O)N3CCC4(CC3)CCN(c3ccc(F)cc3)CC4)cc21)c1ccccc1Cl (centres unmarked) [Ind_CC-097] (field: inhibition at 10 µM) = 33%

response.value for CN(C(=O)Cc1ccccc1Cl)C1CCc2ccc(C(=O)N3CCC4(CC3)CCN(c3ccncc3)CC4)cc21 (centres unmarked) [Ind_CC-019] (field: inhibition at 10 µM) = 99%

response.value for O=C(NC1CCc2ccc(C(=O)N3CCC4(CC3)CCN(c3ccncc3)CC4)cc21)c1c(Cl)cccc1C(F)(F)F (centres unmarked) [IND_CC-204] (field: inhibition at 10 µM) = 99%

response.value for CN(C(=O)c1ccccc1Cl)C1CCc2ccc(C(=O)N3CCC4(CC3)CCN(c3ccc(F)cc3)CC4)cc21 (centres unmarked) [Ind_CC-108] (field: inhibition at 10 µM) = 23%

response.value for CN(C(=O)c1cc(F)c(F)cc1Cl)C1CCc2ccc(C(=O)N3CCC4(CC3)CCN(c3ccncc3)CC4)cc21 (centres unmarked) [IND_CC-224] (field: inhibition at 10 µM) = 100%

response.value for CC1(C)Cc2ccc(C(=O)N3CCC4(CC3)CCN(c3ccncc3)CC4)cc2C1NC(=O)c1c(Cl)cccc1Cl (centres unmarked) [IND_CC-287] (field: inhibition at 10 µM) = 99%

response.value for CC1(C)CC(NC(=O)c2ccccc2C(F)(F)F)c2cc(C(=O)N3CCC4(CC3)CCN(c3ccncc3)CC4)ccc21 (centres unmarked) [Ind_CC-058] (field: inhibition at 10 µM) = 100%

response.value for O=C(NC1CCc2ccc(C(=O)N3CCC4(CC3)CCN(c3ccc(C(F)(F)F)cc3)CC4)cc21)c1cccc(Cl)c1Cl (centres unmarked) [IND_CC-281] (field: inhibition at 10 µM) = 84%
